Entry source: patent US20050282743A1

molecular target: GST-BAI-1 Associated Protein PDZ domain 2 (Mus musculus (Mouse)), Q6RHR9; test: G assay titration, PDZ 0.3 ug/ml
Sequence (Q6RHR9 455-558): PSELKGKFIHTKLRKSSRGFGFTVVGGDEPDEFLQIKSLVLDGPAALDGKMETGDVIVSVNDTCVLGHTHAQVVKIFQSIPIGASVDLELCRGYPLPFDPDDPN
Measurement name: Kd (nM)
Provide only the numeric value, understood in nM.

Query: Specify reported Kd for the binder shown: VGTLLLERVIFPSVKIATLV (modifications not checked) [AdenoE4 typ9]
Result: 20
